// reported self-splicing fitness (ln) per item
# protocol description: self-splicing fitness, log relative to wild type (ln ratio); higher = more splicing; Tetrahymena group I intron in knt gene, E. coli kanamycin selection, DiMSum; sequences stand for … in CUCUCU…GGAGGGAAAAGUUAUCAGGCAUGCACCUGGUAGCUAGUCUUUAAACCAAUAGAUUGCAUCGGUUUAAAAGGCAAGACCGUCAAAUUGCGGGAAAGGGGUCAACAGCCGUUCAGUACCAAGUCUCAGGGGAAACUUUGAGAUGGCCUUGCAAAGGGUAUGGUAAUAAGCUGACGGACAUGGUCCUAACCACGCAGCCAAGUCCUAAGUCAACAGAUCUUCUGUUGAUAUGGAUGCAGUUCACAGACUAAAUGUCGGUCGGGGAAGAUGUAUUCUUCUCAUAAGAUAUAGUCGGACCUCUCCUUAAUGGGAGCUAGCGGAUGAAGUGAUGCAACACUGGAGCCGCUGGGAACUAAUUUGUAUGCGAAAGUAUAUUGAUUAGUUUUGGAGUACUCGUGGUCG;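 further: selection with 25 µg/mL kanamycin versus none on LB agar overnight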
# condition summary: 30 °C
measured property: self-splicing fitness (ln)

1. GGUAAGCAAUAUUACGUAGU
-1.48
2. UACGAGCAAUAUUACGGUCA
-1.39
3. GGCCAGCAAUAUUACGCCAU
-3.57
4. CCCGAGCAAUAUUACGACGA
-3.44
5. CGCGAGCAAUAUUACGCAAC
-2.25
6. UUGCAGCAAUAUUACGGCCC
-1.83
7. GCACAGCAAUAUUACGUCCC
-0.0609
8. CUCGAGCAAUAUUACGUGCC
-3.35
9. GCGUAGCAAUAUUACGACUA
0.106
10. GGGGAGCAAUAUUACGCAUA
-3.29
11. UAACAGCAAUAUUACGCGUG
-0.718
12. GGAAAGCAAUAUUACGGUAC
-0.689
13. ACAUAGCAAUAUUACGGGUC
-3.93
14. UGCCAGCAAUAUUACGCUCG
-0.839
15. AACCAGCAAUAUUACGCACA
-0.335
16. GCCAAGCAAUAUUACGAGUU
-1.7
17. GGGAAGCAAUAUUACGCACA
-2.53
18. AAACAGCAAUAUUACGCUGG
-2.53
19. GUCAAGCAAUAUUACGAGUU
-3.15
20. GCCUAGCAAUAUUACGCACU
-0.602
21. CGGGAGCAAUAUUACGUGUU
-5.29
22. UCUAAGCAAUAUUACGGGCU
-4.19
23. CUUAAGCAAUAUUACGGUCA
-3.8
24. UCUAAGCAAUAUUACGUGUA
-1.6
25. AGCAAGCAAUAUUACGUAUA
-2.91
26. CUUAAGCAAUAUUACGAGAU
-2.92
27. CAUGAGCAAUAUUACGCGCA
-2.89
28. CUACAGCAAUAUUACGUGCG
-1.75
29. GACAAGCAAUAUUACGGCGG
-3.27
30. UCCGAGCAAUAUUACGGCCG
-4.07
31. GGCUAGCAAUAUUACGUGUC
-1.67
32. UAAUAGCAAUAUUACGUGGC
-3.76
33. UUCAAGCAAUAUUACGAUGA
-0.963
34. GUUAAGCAAUAUUACGUGGU
-2.79

====

# protocol description: self-splicing fitness, log relative to wild type (ln ratio); higher = more splicing; Tetrahymena group I intron in knt gene, E. coli kanamycin selection, DiMSum; sequences stand for … in CUCUCU…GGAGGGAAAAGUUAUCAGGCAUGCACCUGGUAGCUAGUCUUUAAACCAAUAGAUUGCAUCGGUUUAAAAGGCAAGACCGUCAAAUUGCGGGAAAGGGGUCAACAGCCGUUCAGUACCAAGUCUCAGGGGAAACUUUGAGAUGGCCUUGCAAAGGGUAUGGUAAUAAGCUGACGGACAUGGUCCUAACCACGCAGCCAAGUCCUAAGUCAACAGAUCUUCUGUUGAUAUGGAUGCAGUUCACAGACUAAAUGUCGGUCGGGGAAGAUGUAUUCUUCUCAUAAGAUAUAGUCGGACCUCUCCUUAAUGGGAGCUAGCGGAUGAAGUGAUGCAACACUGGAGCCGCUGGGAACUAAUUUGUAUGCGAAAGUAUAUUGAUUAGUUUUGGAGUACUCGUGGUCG
# condition summary: 37 °C
measured property: self-splicing fitness (ln)

1) AUUAAGCAAUAUUACGUGAG
-0.33
2) CGGAAGCAAUAUUACGGGUG
0.544
3) AUGGAGCAAUAUUACGCCUU
-2.41
4) UUGAAGCAAUAUUACGAUUU
-0.941
5) ACCAAGCAAUAUUACGAUUU
-1.26
6) GUUAAGCAAUAUUACGGAUA
-1.61
7) GAGAAGCAAUAUUACGGCAG
-1.85
8) CGUCAGCAAUAUUACGUAUG
0.188
9) ACCUAGCAAUAUUACGUAGU
-0.568
10) UUAUAGCAAUAUUACGUACU
-1
11) GCUAAGCAAUAUUACGGCGC
-0.159
12) UAGAAGCAAUAUUACGGGGG
-2.25
13) GCGCAGCAAUAUUACGGCGC
-1.98
14) CGCUAGCAAUAUUACGUUCG
-0.781
15) UAGAAGCAAUAUUACGCGCG
-0.204
16) ACAUAGCAAUAUUACGCACU
0.676
17) AGGCAGCAAUAUUACGCAGC
-2.84
18) GUACAGCAAUAUUACGCCGA
-1.96
19) AUUCAGCAAUAUUACGCAAU
-0.772
20) GAUAAGCAAUAUUACGCUCG
0.0364
21) UUCAAGCAAUAUUACGACGA
0.213
22) AUUGAGCAAUAUUACGUCGU
-1.69
23) CACUAGCAAUAUUACGGCCU
-1.94
24) GGUCAGCAAUAUUACGAGUC
-0.893
25) CGAGAGCAAUAUUACGUAGA
-1.68
26) UAGUAGCAAUAUUACGGUGC
-2.39
27) CUUGAGCAAUAUUACGGUUC
-2.51
28) UCCUAGCAAUAUUACGCGUC
-3.53
29) CAAUAGCAAUAUUACGGGGG
-2.01
30) CCACAGCAAUAUUACGAUUC
-2.23
31) CGCCAGCAAUAUUACGUCUU
-1.45
32) UUAGAGCAAUAUUACGGUAU
-1.36
33) UCCGAGCAAUAUUACGCUGC
-1.84
34) ACUAAGCAAUAUUACGUGUU
-2.2

====

# protocol description: self-splicing fitness, log relative to wild type (ln ratio); higher = more splicing; Tetrahymena group I intron in knt gene, E. coli kanamycin selection, DiMSum; sequences stand for … in CUCUCU…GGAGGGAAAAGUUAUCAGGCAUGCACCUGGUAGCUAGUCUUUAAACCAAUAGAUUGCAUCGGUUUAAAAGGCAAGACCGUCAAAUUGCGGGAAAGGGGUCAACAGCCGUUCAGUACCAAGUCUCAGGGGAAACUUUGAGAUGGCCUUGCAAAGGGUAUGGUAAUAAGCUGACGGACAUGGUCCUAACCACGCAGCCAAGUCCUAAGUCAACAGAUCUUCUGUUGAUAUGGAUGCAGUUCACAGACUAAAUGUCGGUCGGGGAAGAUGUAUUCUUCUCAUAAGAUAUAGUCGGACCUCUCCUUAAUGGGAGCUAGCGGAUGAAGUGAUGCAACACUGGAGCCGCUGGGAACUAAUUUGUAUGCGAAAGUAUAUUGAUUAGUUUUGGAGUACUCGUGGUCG
# condition summary: 30 °C
measured property: self-splicing fitness (ln)

1) AUAAAGCAAUAUUACGCUUA
-1.27
2) ACUGAGCAAUAUUACGAGGC
-3.07
3) CUUAAGCAAUAUUACGCAAC
-3.55
4) UACCAGCAAUAUUACGGCUC
-0.179
5) CGGCAGCAAUAUUACGAGAC
-3.78
6) GUGCAGCAAUAUUACGGAUC
0.0925
7) CUAGAGCAAUAUUACGUCGG
-0.971
8) CCAUAGCAAUAUUACGCUAC
-4.24
9) ACGGAGCAAUAUUACGCUUA
-2.71
10) GCGUAGCAAUAUUACGCGGU
-2.42
11) UACGAGCAAUAUUACGCUGA
-3
12) UUAUAGCAAUAUUACGCUCU
-2.68
13) UACUAGCAAUAUUACGUGGU
-2.87
14) AAUCAGCAAUAUUACGAGAA
-1.61
15) AGAAAGCAAUAUUACGUCGG
-1.37
16) GUGCAGCAAUAUUACGUAUC
-1.69

====

# protocol description: self-splicing fitness, log relative to wild type (ln ratio); higher = more splicing; Tetrahymena group I intron in knt gene, E. coli kanamycin selection, DiMSum; sequences stand for … in CUCUCU…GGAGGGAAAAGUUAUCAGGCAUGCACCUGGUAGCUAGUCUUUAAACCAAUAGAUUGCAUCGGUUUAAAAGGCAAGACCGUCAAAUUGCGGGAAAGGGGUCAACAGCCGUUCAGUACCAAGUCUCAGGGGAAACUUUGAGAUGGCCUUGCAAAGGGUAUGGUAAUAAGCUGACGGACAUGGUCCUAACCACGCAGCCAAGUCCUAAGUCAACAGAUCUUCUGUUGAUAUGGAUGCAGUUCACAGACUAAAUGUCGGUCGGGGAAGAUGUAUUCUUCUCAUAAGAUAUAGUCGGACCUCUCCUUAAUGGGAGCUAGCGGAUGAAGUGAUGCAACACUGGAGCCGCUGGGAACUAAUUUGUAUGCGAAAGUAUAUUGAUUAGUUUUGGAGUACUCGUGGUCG
# condition summary: 37 °C
So basically, the class depends on measured self-splicing fitness (ln), and the ranges are c1 (below -2), c2 (-2 to below -0.7), c3 (-0.7 or more)

1) CAGUAGCAAUAUUACGAGAU
c2
2) GUGCAGCAAUAUUACGUAUA
c3
3) AGAUAGCAAUAUUACGGCAG
c2
4) GGUUAGCAAUAUUACGGCGC
c3
5) AGCAAGCAAUAUUACGUCAU
c2
6) AAACAGCAAUAUUACGAGAC
c1
7) CGUGAGCAAUAUUACGACGA
c2
8) AUUAAGCAAUAUUACGCCAC
c2
9) CAUUAGCAAUAUUACGAACA
c3
10) AAUUAGCAAUAUUACGUUAG
c1
11) GAGUAGCAAUAUUACGGGCC
c2
12) AUCCAGCAAUAUUACGGGGU
c1
13) GUUCAGCAAUAUUACGGACU
c1
14) UAACAGCAAUAUUACGCACG
c3
15) CGCCAGCAAUAUUACGCGAC
c1
16) AAGGAGCAAUAUUACGAACU
c3

The reported numbers originate from the supplement of paper PMC7877785.
